Experiment: NCI Yeast Anticancer Drug Screen. Data for the mec2-1 strain (AID 157)
Settings: S. cerevisiae mec2-1 strain, at 1.2 µM, active compounds read high
Compounds without any hit were thinned out: in the full panel of roughly 79,000, 15% have a hit.

molecule | growth inhibition (%)
O=c1c2ccccc2nc(-c2ccccc2)n1O | 18
CCCCCCCCCCCC1N=C(N)NC(CCCO)=C1C(=O)OC (stereo unspecified) | 12
CCC(C)NC1=NCC(C)S1 (stereo unspecified) | -40
CC(C)OC(=O)Nc1ccc2nc(-c3cscn3)[nH]c2c1 | 2
C[CH2][Sn]([CH2]C)([O]C(=O)C(N)Cc1ccccc1)[O]C(=O)C(N)Cc1ccccc1 (stereo unspecified) | 3
O=C(NNc1ccccc1)c1ccc(Cl)c(Cl)c1 | -4
